System: NCI-H460
Assay: NCI tumour cell line growth inhibition, 48 h
The source made the active and inactive calls. Cut-off read from the data, not from the text of the source: active = GI50 up to about 1.1 µM and inactive = higher.
Just give me one of these, please: active, inactive

-- ask Answer briefly: the call reported for COc1ccc2c(c1)c(=Cc1ccc(N(C)C)cc1)c1cc(-c3ccccc3)[n+](C)n12 in this assay.
-- reply active

-- ask Answer briefly: the call reported for COc1cc2cc(C(=O)N3C[C@@H](CCl)c4c3cc(N)c3ccccc43)[nH]c2c(OC)c1OC in this assay.
-- reply active

-- ask Answer briefly: the call reported for C[C@@]12CCCc3coc(c31)C(=O)c1cc3c(cc12)C(=O)C=CC3=O in this assay.
-- reply inactive

-- ask Answer briefly: the call reported for O=C1Cc2ccccc2N1c1c(Cl)cccc1Cl in this assay.
-- reply inactive

-- ask Answer briefly: the call reported for CN(C)CC1CN=C(N)O1 (centres undefined) in this assay.
-- reply inactive

-- ask Answer briefly: the call reported for CCOC(=O)c1cc2cc(C)cc(C(=O)c3ccc([N+](=O)[O-])cc3)c2[nH]1 in this assay.
-- reply inactive

-- ask Answer briefly: the call reported for O=C(/C=C/c1ccc(O)c(O)c1O)OCCc1ccccc1 in this assay.
-- reply inactive

-- ask Answer briefly: the call reported for COc1cc(OC2OC(CO)C(O)C(O)C2O)c2c(c1)O[C@@H]1[C@H](O)Oc3cc(OC)c(OC)cc3[C@]1(O)C2=O (some centres undefined) in this assay.
-- reply inactive

-- ask Answer briefly: the call reported for CCc1cc(Cc2cc(CC)c(NC(=O)C(=O)CC(=O)c3sc(-c4cccnc4)nc3C)c(CC)c2)cc(CC)c1NC(=O)C(=O)CC(=O)c1sc(-c2cccnc2)nc1C in this assay.
-- reply inactive

###

System: OVCAR-3
Experiment: NCI tumour cell line growth inhibition, 48 h
Calls of active or inactive are those of the source. Cut-off read from the data, not from the text of the source: active = GI50 up to about 1.1 µM and inactive = higher.
Just give me one of these, please: active, inactive

-- ask Answer briefly: the call reported for COC(=O)C1=CC2OC1(C)CCC2=O (configuration not stated) in this assay.
-- reply inactive

-- ask Answer briefly: the call reported for CC(C)/C(Cl)=N\OC(=O)Nc1ccc(C#N)cc1 in this assay.
-- reply inactive

-- ask Answer briefly: the call reported for C=CC/N=C1/N=C(CC(=O)OCC)CS1 in this assay.
-- reply inactive

-- ask Answer briefly: the call reported for CCCCCCCCCCCCC(=O)NCC(=O)NC(Cc1ccccc1)C(=O)Oc1ccc([N+](=O)[O-])cc1 (configuration not stated) in this assay.
-- reply inactive

-- ask Answer briefly: the call reported for CC(C)(C)c1ccc(O)c(CN(Cc2c(O)ccc3ccccc23)C2CCCCC2)c1 in this assay.
-- reply inactive

-- ask Answer briefly: the call reported for c1ccc(C2N=C(c3ccccn3)C(c3ccccn3)=NC2c2ccccc2)cc1 (configuration not stated) in this assay.
-- reply inactive

-- ask Answer briefly: the call reported for O=C1Cc2ccccc2N1c1c(Cl)cccc1Cl in this assay.
-- reply inactive

-- ask Answer briefly: the call reported for COc1ccc(NC(=O)c2cc(OC)c(OC)c(OC)c2)cc1 in this assay.
-- reply inactive

-- ask Answer briefly: the call reported for COC(=O)C(/C(=N\O)C(=O)Nc1ccc(Br)cc1)c1nc2ccccc2nc1O (configuration not stated) in this assay.
-- reply inactive

-- ask Answer briefly: the call reported for S=C1C=C(c2ccccc2)Sc2ccccc2N1 in this assay.
-- reply inactive

-- ask Answer briefly: the call reported for CCOC(=O)Nc1cc2c(c(N)n1)N=C(c1ccccc1)[C@H](C)N2 [MIVOBULIN ISETHIONATE] in this assay.
-- reply active

-- ask Answer briefly: the call reported for COc1cc(OC2OC(CO)C(O)C(O)C2O)c2c(c1)O[C@@H]1[C@H](O)Oc3cc(OC)c(OC)cc3[C@]1(O)C2=O (some centres not stated) in this assay.
-- reply inactive

-- ask Answer briefly: the call reported for CCOc1ccc(C(c2c(O)c3ccccc3oc2=O)c2c(O)c3ccccc3oc2=O)cc1 in this assay.
-- reply inactive

-- ask Answer briefly: the call reported for CCn1cnnc1-c1nsc2ccccc12 in this assay.
-- reply inactive

-- ask Answer briefly: the call reported for N#CC(c1ccc(O)cc1)N1CCN(C(C#N)c2ccc(O)cc2)CC1 (configuration not stated) in this assay.
-- reply inactive

-- ask Answer briefly: the call reported for N#CC1=C(N)OC2=C(CCCc3ccc([N+](=O)[O-])cc32)C1c1ccc(Cl)cc1 (configuration not stated) in this assay.
-- reply inactive

-- ask Answer briefly: the call reported for C=CCOc1ccc(C2c3c(n[nH]c3O)CC(C)(O)C2C(=O)OC)cc1OC (configuration not stated) in this assay.
-- reply inactive

-- ask Answer briefly: the call reported for CCOCN1COCN(C)C1=O in this assay.
-- reply inactive

-- ask Answer briefly: the call reported for N#CCCN(CCC#N)c1ccc(C(=N/c2ccc(Cl)cc2)/N=N/c2ccccc2)cc1 in this assay.
-- reply inactive

-- ask Answer briefly: the call reported for CCC1C2C=CC(CC2)N1S(=O)(=O)c1ccc(C)cc1 (configuration not stated) in this assay.
-- reply inactive

-- ask Answer briefly: the call reported for CC1(C)CC(=O)c2[nH]c3ccccc3c2CC(=O)NCCc2cn1cn2 in this assay.
-- reply inactive

-- ask Answer briefly: the call reported for CCCSc1ccc2[nH]c(N3C(=O)/C(=C/c4ccc(SC)cc4)N=C3c3ccccc3)cc2c1 in this assay.
-- reply inactive

###

Tested on: HL-60
Test: NCI tumour cell line growth inhibition, 48 h
The source made the active and inactive calls. No stated cut-off is given here; in the data, active = GI50 up to about 1.1 µM and inactive = higher.
Consider the following compounds; for each one, report its GI50.

-- ask Consider the compound shown here: O=c1oc2ccc([N+](=O)[O-])cc2cc1-c1csc(-c2ccccc2)n1 What is its recorded GI50?
-- reply > 100 µM (inactive)

-- ask Consider the compound shown here: Cc1ccc(-c2nc(N/N=C/c3ccc(O)cc3)c3ccccc3n2)cc1 What is its recorded GI50?
-- reply 17.2 µM (inactive)

-- ask Consider the compound shown here: CN(C)c1ccc(C=C2C(=O)OC(C)(C)OC2=O)cc1Br What is its recorded GI50?
-- reply 41.1 µM (inactive)

-- ask Consider the compound shown here: CC(=O)OC1COC(N2C(=O)/C(=N\Nc3ccc([N+](=O)[O-])cc3)c3cc(Br)c([N+](=O)[O-])cc32)C(OC(C)=O)C1OC(C)=O (stereo not drawn) What is its recorded GI50?
-- reply 65.6 µM (inactive)

-- ask Consider the compound shown here: CC1(C)C[C@H](O)[C@H](O)[C@]23C(=O)O[C@H](O)[C@H]2C(C=O)=CC[C@@H]13 What is its recorded GI50?
-- reply > 100 µM (inactive)

-- ask Consider the compound shown here: C=CCn1c(=O)ccn(/C(=C/C(=O)OCC)C(=O)OCC)c1=O What is its recorded GI50?
-- reply 1.76 µM (inactive)

-- ask Consider the compound shown here: Fc1ccccc1C1SCC2=Nc3ccccc3CN21 (stereo not drawn) What is its recorded GI50?
-- reply > 100 µM (inactive)

-- ask Consider the compound shown here: CC(C)CCCC(C)[C@H]1CC[C@H]2[C@@H]3CC[C@H]4C[C@@H](CCC=C(c5cc(Cl)c(O)c(C(=O)O)c5)c5cc(Cl)c(O)c(C(=O)O)c5)CC[C@]4(C)[C@H]3CC[C@]12C (stereo partly drawn) What is its recorded GI50?
-- reply > 50 µM (inactive)

###

System: ACHN
Experiment: NCI tumour cell line growth inhibition, 48 h
Activity calls are given as the source filed them. Cut-off read from the data, not from the text of the source: active = GI50 up to about 1.1 µM and inactive = higher.
reported property: GI50

-- ask Consider the molecule shown here: NNC(=O)N/N=C1\C(=O)N(c2nccs2)C(=O)C(=O)C1c1nc2ccccc2s1 (centres undefined) What is its recorded GI50?
-- reply > 100 µM (inactive)

-- ask Consider the molecule shown here: O=C1CC(C(COCc2ccccc2)OCc2ccccc2)CC(=O)N1 (centres undefined) What is its recorded GI50?
-- reply > 100 µM (inactive)

-- ask Consider the molecule shown here: C/C(=N/O)c1cccc(Nc2nc3ccccc3c3[nH]c4ccccc4c23)c1 What is its recorded GI50?
-- reply 1.59 µM (inactive)

-- ask Consider the molecule shown here: CC1(C)CC[C@]2(C(=O)O)CC[C@]3(C)[C@H](C(=O)C=C4[C@@]5(C)C=C(C#N)C(=O)C(C)(C)[C@@H]5CC[C@]43C)[C@@H]2C1 [BARDOXOLONE] What is its recorded GI50?
-- reply 0.543 µM (active)

###

Tested on: DMS-273
Experiment: NCI tumour cell line growth inhibition, 48 h
Activity calls are given as the source filed them. No stated cut-off is given here; in the data, active = GI50 up to about 1.1 µM and inactive = higher.
Just give me one of these, please: t (active), f (inactive)

-- ask Answer briefly: the call reported for CCCN(CCCC(NC(C)=O)C(=O)NCc1ccccc1)C(=O)N(C)N=O (centres undefined) in this assay.
-- reply f

-- ask Answer briefly: the call reported for Cc1ccc2c(c1-c1ccccc1)C(=O)OC2 in this assay.
-- reply f

-- ask Answer briefly: the call reported for C#CC1/C(=C\C(=O)OC)CCCC1O (centres undefined) in this assay.
-- reply f

-- ask Answer briefly: the call reported for N/N=c1\c2ccccc2c2ccc3c4ccccc4/c(=N\N)c3c12 in this assay.
-- reply f

-- ask Answer briefly: the call reported for CCCN(CCCCC(NC(C)=O)C(=O)NCc1ccccc1)C(=O)N(CCCl)N=O (centres undefined) in this assay.
-- reply f

-- ask Answer briefly: the call reported for Oc1cc(-c2cccc(F)c2)nc2cc3c(cc12)OCO3 in this assay.
-- reply t

-- ask Answer briefly: the call reported for N/C(=N/O)N/N=C\c1cc(Cl)cc(Cl)c1O in this assay.
-- reply t

-- ask Answer briefly: the call reported for CCOCN1COCN(C)C1=O in this assay.
-- reply f

-- ask Answer briefly: the call reported for C#CCOCn1cnc2ncnc(Cl)c21 in this assay.
-- reply f

-- ask Answer briefly: the call reported for O=C1c2ccccc2-c2cccc3ccc(Cc4ccc5ccccc5c4)c1c23 in this assay.
-- reply f

-- ask Answer briefly: the call reported for Oc1ccc(I)c2cccnc12 in this assay.
-- reply f

-- ask Answer briefly: the call reported for COC(=O)C1=CC2OC1(C)CCC2=O (centres undefined) in this assay.
-- reply f

-- ask Answer briefly: the call reported for c1ccc(N2CCN(CCCN3CCc4c([nH]c5ccccc45)C3c3cccnc3)CC2)cc1 (centres undefined) in this assay.
-- reply f

-- ask Answer briefly: the call reported for Cn1c(=O)nc2n(-c3cc(Cl)ccc3Cl)c3ccccc3nc-2c1=O in this assay.
-- reply f

-- ask Answer briefly: the call reported for CN(N=O)C(=O)N(N)CCCCC(NC(=O)OCc1ccccc1)C(=O)OCc1ccccc1 (centres undefined) in this assay.
-- reply f

-- ask Answer briefly: the call reported for S=P1(Oc2ccccc2)NNP2(=NP(N3CC3)(N3CC3)=NP(N3CC3)(N3CC3)=N2)NN1 (centres undefined) in this assay.
-- reply f

-- ask Answer briefly: the call reported for Cc1ccc2c(CC(=O)O)cc(=O)oc2c1 in this assay.
-- reply f

-- ask Answer briefly: the call reported for CCC1N2CCCCC2[C@@H]2c3[nH]c4ccccc4c3CCN12 (some centres undefined) in this assay.
-- reply f

-- ask Answer briefly: the call reported for COc1ccc(C2C(Cl)C(=O)N2n2cnc3ccccc3c2=O)cc1OC (centres undefined) in this assay.
-- reply f
